Numbers sourced from patent US7713994B2.

Could you please report measured melting point for the items listed next?

get_value(item= C[C@@H]1CN(c2ccc(N/C=C3\C(=O)NC(=O)c4ccc(-c5ccoc5)cc43)nc2)C[C@H](C)N1 , readout=melting point) returns 230 to 231 °C

get_value(item= CN1CCN(c2ccc(N/C=C3\C(=O)NC(=O)c4ccc(F)cc43)cc2)CC1 , readout=melting point) returns 242 to 243 °C

get_value(item= O=C1NC(=O)c2ccc(Br)cc2/C1=C/Nc1ccc(O)c(C(=O)O)c1 , readout=melting point) returns 336 to 337 °C

get_value(item= CN1CCN(C(=O)Nc2ccc(N/C=C3\C(=O)NC(=O)c4ccc(Br)cc43)cc2)CC1 , readout=melting point) returns > 300 °C

get_value(item= CN(C)CCN1CCN(/C=C2\C(=O)NC(=O)c3ccc(Br)cc32)CC1 , readout=melting point) returns 166 to 167 °C

get_value(item= COc1ccc(-c2ccc3c(c2)/C(=C/Nc2ccc(N4C[C@@H](C)N[C@@H](C)C4)c(F)c2)C(=O)NC3=O)cc1 , readout=melting point) returns 227 to 228 °C

get_value(item= O=C1NC(=O)c2ccc(-c3ccoc3)cc2C1=NNc1ccc(CN2CCCCC2)cc1 , readout=melting point) returns 223 to 225 °C (dec.)

get_value(item= CN1CCN(Cc2ccc(N/C=C3\C(=O)NC(=O)c4ccccc43)cc2)CC1 , readout=melting point) returns 231 to 232 °C

----------
measured_target: cyclin B/CDK1 enzyme (Homo sapiens, UniProt P06493)
Construct: purchased New England BioLabs; host or cells: Sf9 insect cells, recombinant baculovirus
Sequence (P06493 whole entry): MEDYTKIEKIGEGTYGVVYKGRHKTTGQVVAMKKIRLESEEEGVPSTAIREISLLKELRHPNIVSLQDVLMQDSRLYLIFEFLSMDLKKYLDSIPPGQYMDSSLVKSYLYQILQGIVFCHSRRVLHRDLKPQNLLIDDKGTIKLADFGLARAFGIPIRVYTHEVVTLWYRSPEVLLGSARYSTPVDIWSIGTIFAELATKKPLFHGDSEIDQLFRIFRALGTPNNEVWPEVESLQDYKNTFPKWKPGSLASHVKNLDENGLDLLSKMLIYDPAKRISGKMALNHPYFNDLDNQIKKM
Sequence (P14635 whole entry partner): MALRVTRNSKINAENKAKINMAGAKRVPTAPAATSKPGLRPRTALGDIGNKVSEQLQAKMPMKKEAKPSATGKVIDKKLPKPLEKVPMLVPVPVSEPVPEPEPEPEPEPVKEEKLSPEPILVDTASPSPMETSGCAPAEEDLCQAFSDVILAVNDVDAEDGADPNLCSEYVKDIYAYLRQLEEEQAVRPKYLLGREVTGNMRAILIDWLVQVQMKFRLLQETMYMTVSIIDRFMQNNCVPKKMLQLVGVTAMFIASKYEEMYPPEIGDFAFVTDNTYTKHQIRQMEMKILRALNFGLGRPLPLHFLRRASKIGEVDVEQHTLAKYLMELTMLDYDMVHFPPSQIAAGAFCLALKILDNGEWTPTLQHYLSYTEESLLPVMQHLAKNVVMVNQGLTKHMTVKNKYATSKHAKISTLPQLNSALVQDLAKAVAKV
protocol_details: CDK1 ELISA kinase assay (phospho-Rb ser 795 detection)
Format: biochemical
particulars: In Vitro Enzyme Assays, read-out: CDK1 IC50
pIC50: −log10 of the molar value.
measured_property: pIC50

get_value(item= C[C@@H]1CN(c2ccc(N/C=C3\C(=O)NC(=O)c4ccc(-c5ccsc5)cc43)cc2F)C[C@H](C)N1 , readout=pIC50) returns 4.40

get_value(item= CN(C)CCCCCN/C=C1\C(=O)NC(=O)c2ccc(Br)cc21 , readout=pIC50) returns < 4.30

get_value(item= CN1CCN(c2ccc(N/C=C3\C(=O)NC(=O)c4ccc(C#Cc5ccccc5)cc43)cc2)CC1 , readout=pIC50) returns 4.48

get_value(item= C=CC(=O)Nc1cnc(CN/C=C2\C(=O)NC(=O)c3ccc(I)cc32)cc1O , readout=pIC50) returns 5.19

get_value(item= CO[C@@H]1CCN(Cc2ccc(N/C=C3\C(=O)NC(=O)c4ccc(I)cc43)cc2)C1 , readout=pIC50) returns < 4.30

get_value(item= CN1CCC(N(C)CC2CCN(c3ccc(N/C=C4\C(=O)NC(=O)c5ccc(I)cc54)cc3)CC2)C1 (centres unmarked) , readout=pIC50) returns < 4.30

get_value(item= O=C1NC(=O)c2ccc(-c3ccc(Cl)s3)cc2/C1=C/Nc1ccc(CN2CCC[C@H]2CO)cc1 , readout=pIC50) returns < 4.30

get_value(item= O=C1NC(=O)c2ccc(Br)cc2/C1=C/N1CCN(CCN2CCOCC2)CC1 , readout=pIC50) returns < 4.30

----------
measured_target: cyclin D1/cdk 4 enzyme (Homo sapiens)
Construct: made in house; host or cells: Sf9 insect cells, recombinant baculovirus
Sequence (P11802 whole entry, species assumed): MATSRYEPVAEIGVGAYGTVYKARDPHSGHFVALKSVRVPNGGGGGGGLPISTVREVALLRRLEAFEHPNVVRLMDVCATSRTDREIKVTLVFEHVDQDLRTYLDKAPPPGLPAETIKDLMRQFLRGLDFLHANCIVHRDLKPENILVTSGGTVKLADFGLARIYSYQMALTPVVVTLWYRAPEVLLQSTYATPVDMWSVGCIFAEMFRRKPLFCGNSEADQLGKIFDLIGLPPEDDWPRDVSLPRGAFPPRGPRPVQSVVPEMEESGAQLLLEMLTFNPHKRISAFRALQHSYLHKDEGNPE
Sequence (P24385 whole entry partner, species assumed): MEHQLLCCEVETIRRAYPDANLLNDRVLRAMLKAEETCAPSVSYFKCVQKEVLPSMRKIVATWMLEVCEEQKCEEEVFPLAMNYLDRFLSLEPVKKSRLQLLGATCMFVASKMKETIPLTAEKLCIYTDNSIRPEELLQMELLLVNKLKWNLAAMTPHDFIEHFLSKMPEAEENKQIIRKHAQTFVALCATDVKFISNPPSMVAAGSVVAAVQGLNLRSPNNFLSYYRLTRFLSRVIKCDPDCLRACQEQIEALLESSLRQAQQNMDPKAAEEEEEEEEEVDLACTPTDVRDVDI
protocol_details: CDK4 ELISA kinase assay (phospho-Rb ser 795 detection)
Type: biochemical
particulars: In Vitro Enzyme Assay, read-out: CDK4 IC50
Kindly apply the following: YES if IC50 is less than 4 µM, NO in every other case.

**Q:** Answer whether the compound O=C1NC(=O)c2ccc(Br)cc2/C1=C/Nc1ccc(-n2ccnc2)cc1 [Example 869] has IC50 strictly less than 4 µM
**A:** NO

**Q:** Answer whether the compound CN(CCN1CCCCC1)c1ccc(N/C=C2\C(=O)NC(=O)c3ccc(Br)cc32)cc1 [Example 865] has IC50 strictly less than 4 µM
**A:** NO

**Q:** Answer whether the compound CN(C)CCOc1ccc(N/C=C2\C(=O)NC(=O)c3ccc(Br)cc32)cc1 [Example 867] has IC50 strictly less than 4 µM
**A:** YES

**Q:** Answer whether the compound CN(C)CCCN(C)c1ccc(N/C=C2\C(=O)NC(=O)c3ccc(Br)cc32)cc1 [Example 876] has IC50 strictly less than 4 µM
**A:** NO

**Q:** Answer whether the compound CN(C)CCCc1ccc(N/C=C2\C(=O)NC(=O)c3ccc(Br)cc32)cc1 [Example 874] has IC50 strictly less than 4 µM
**A:** YES

**Q:** Answer whether the compound CC(=O)Oc1cc(CN/C=C2\C(=O)NC(=O)c3ccc(Br)cc32)cc2c1OC(C)(C)O2 [Example 872] has IC50 strictly less than 4 µM
**A:** NO

**Q:** Answer whether the compound CONCCCc1ccc(N/C=C2\C(=O)NC(=O)c3ccc(Br)cc32)cc1 [Example 875] has IC50 strictly less than 4 µM
**A:** YES

**Q:** Answer whether the compound CN1CCN(CCN(C)c2ccc(NC=C3C(=O)NC(=O)c4ccc(Br)cc43)cc2)CC1 (stereo in doubt) [Example 870] has IC50 strictly less than 4 µM
**A:** YES

**Q:** Answer whether the compound CN1CCC(Oc2ccc(N/C=C3\C(=O)NC(=O)c4ccc(Br)cc43)cc2)C1 (centres unmarked) [Example 877] has IC50 strictly less than 4 µM
**A:** NO

**Q:** Answer whether the compound CC1(C)Oc2cc(CN/C=C3\C(=O)NC(=O)c4ccc(Br)cc43)cc(OC(=O)C3CC3)c2O1 [Example 873] has IC50 strictly less than 4 µM
**A:** NO

**Q:** Answer whether the compound CN1Cc2ccc(N/C=C3\C(=O)NC(=O)c4ccc(Br)cc43)cc2C1 [Example 868] has IC50 strictly less than 4 µM
**A:** YES

----------
measured_target: cyclin E/CDK2 enzyme (Homo sapiens, UniProt P24941)
Construct: made in house; host or cells: Sf9 insect cells, recombinant baculovirus
protocol_details: CDK2 ELISA kinase assay (phospho-Rb ser 795 detection)
Assay type: biochemical
particulars: In Vitro Enzyme Assays, read-out: CDK2 IC50
measured_property: IC50

# IC50 measured on cyclin E/CDK2 enzyme (Homo sapiens, UniProt P24941) for item O=C1NC(=O)c2ccc(-c3ccsc3)cc2/C1=C/Nc1ccc(N2CCN(CC3CC3)CC2)nc1 [Example 418] = > 50 µM

# IC50 measured on cyclin E/CDK2 enzyme (Homo sapiens, UniProt P24941) for item CN(C)CCS(=O)(=O)c1ccc(N/C=C2\C(=O)NC(=O)c3ccc(Br)cc32)cc1 [Example 243] = 1.9 µM

# IC50 measured on cyclin E/CDK2 enzyme (Homo sapiens, UniProt P24941) for item CCCOc1ccc(CNC=C2C(=O)NC(=O)c3ccc(-n4cccc4)cc32)cc1O [Example 278] = > 50 µM

# IC50 measured on cyclin E/CDK2 enzyme (Homo sapiens, UniProt P24941) for item COC[C@H]1CCCN1Cc1ccc(N/C=C2\C(=O)NC(=O)c3ccc(Br)cc32)cc1 [Example 38] = > 50 µM

# IC50 measured on cyclin E/CDK2 enzyme (Homo sapiens, UniProt P24941) for item O=C1NC(=O)c2ccc(Br)cc2/C1=C/Nc1ccc(-n2ccnc2)cc1 [Example 260] = 14.7 µM

# IC50 measured on cyclin E/CDK2 enzyme (Homo sapiens, UniProt P24941) for item C[C@@H]1CN(c2ccc(N/C=C3\C(=O)NC(=O)c4ccc(I)cc43)cc2)C[C@H](C)N1C [Example 234] = > 50 µM

# IC50 measured on cyclin E/CDK2 enzyme (Homo sapiens, UniProt P24941) for item C[C@@H]1CN(c2ccc(N/C=C3\C(=O)NC(=O)c4ccc(-c5ccc(F)cc5)cc43)cc2)C[C@H](C)N1 [Example 205] = 48.6 µM

# IC50 measured on cyclin E/CDK2 enzyme (Homo sapiens, UniProt P24941) for item COc1ccc(C#Cc2ccc3c(c2)/C(=C/Nc2ccc(N4CCN(C)CC4)cc2)C(=O)NC3=O)cc1 [Example 172] = > 50 µM

----------
measured_target: cyclin D1/cdk 4 enzyme (Homo sapiens)
Construct: made in house; host or cells: Sf9 insect cells, recombinant baculovirus
protocol_details: CDK4 ELISA kinase assay (phospho-Rb ser 795 detection)
Type: biochemical
particulars: In Vitro Enzyme Assay, cyclin D1/cdk 4, read-out: CDK4 IC50
Could you please report measured pIC50 for the items listed next?
In textbook form, pIC50 equals minus log to base ten of the concentration in mol/L.

# pIC50 measured on cyclin D1/cdk 4 enzyme (Homo sapiens) for item O=C1NC(=O)c2ccccc2C1=CNc1ccncc1 = 4.40

# pIC50 measured on cyclin D1/cdk 4 enzyme (Homo sapiens) for item C[C@@H]1CN(c2ccc(N/C=C3\C(=O)NC(=O)c4ccc(-c5ccoc5)cc43)nc2)C[C@H](C)N1 = 6.77

# pIC50 measured on cyclin D1/cdk 4 enzyme (Homo sapiens) for item Cc1ccc(-c2ccc3c(c2)C(=CNc2ccc(CC#N)cc2)C(=O)NC3=O)cc1 = 5.03

# pIC50 measured on cyclin D1/cdk 4 enzyme (Homo sapiens) for item COc1ccc(C=Cc2ccc3c(c2)C(=CNc2ccc(N4CCN(C)CC4)cc2)C(=O)NC3=O)cc1 = 4.59

# pIC50 measured on cyclin D1/cdk 4 enzyme (Homo sapiens) for item CN1CCN(c2ccc(NC=C3C(=O)NC(=O)c4ccc(C=Cc5ccc(Cl)cc5)cc43)cc2)CC1 = 4.77

# pIC50 measured on cyclin D1/cdk 4 enzyme (Homo sapiens) for item CCN1CCN(c2ccc(NC=C3C(=O)NC(=O)c4ccccc43)cc2)CC1 = 4.56

# pIC50 measured on cyclin D1/cdk 4 enzyme (Homo sapiens) for item COc1ccccc1-c1ccc2c(c1)C(=CNc1ccc(N3CCN(C)CC3)cc1)C(=O)NC2=O = 4.48

# pIC50 measured on cyclin D1/cdk 4 enzyme (Homo sapiens) for item O=C1NC(=O)c2ccc(-c3ccc(CO)cc3)cc2C1=CNCc1ccc(O)c(O)c1 = 7.40

# pIC50 measured on cyclin D1/cdk 4 enzyme (Homo sapiens) for item O=C1NC(=O)c2ccc(-c3ccc4ccccc4c3)cc2C1=CNCc1ccc(O)c(O)c1 = 5.72

# pIC50 measured on cyclin D1/cdk 4 enzyme (Homo sapiens) for item O=C1NC(=O)c2ccccc2C1=CNc1ccc(N2CCN(CCN3CCOCC3)CC2)cc1 = 4.47

# pIC50 measured on cyclin D1/cdk 4 enzyme (Homo sapiens) for item CC(C)c1ccc(-c2ccc3c(c2)C(=CNCc2ccc(O)c(O)c2)C(=O)NC3=O)cc1 = 5.84

# pIC50 measured on cyclin D1/cdk 4 enzyme (Homo sapiens) for item CN1CCN(c2ccc(NC=C3C(=O)NC(=O)c4ccc(C=Cc5ccncc5)cc43)cc2)CC1 = 6.04

# pIC50 measured on cyclin D1/cdk 4 enzyme (Homo sapiens) for item N#CCc1ccc(NC=C2C(=O)NC(=O)c3ccc(-c4cc5ccccc5o4)cc32)cc1 = 5.43

# pIC50 measured on cyclin D1/cdk 4 enzyme (Homo sapiens) for item CCNS(=O)(=O)c1ccc(CN/C=C2\C(=O)NC(=O)c3ccccc32)cc1 = 4.67

# pIC50 measured on cyclin D1/cdk 4 enzyme (Homo sapiens) for item O=C1NCc2cc(Br)ccc2C1=CNc1ccc(CCO)cc1 = 4.70

# pIC50 measured on cyclin D1/cdk 4 enzyme (Homo sapiens) for item N#Cc1ccc(-c2ccc3c(c2)C(=CNCc2ccc(S(N)(=O)=O)cc2)C(=O)NC3=O)cc1 = 6.24
